- measured.target: Chromo domain-containing protein 1 (Saccharomyces cerevisiae (strain ATCC 204508 / S288c) (Baker's yeast))
- assay.overview: ScCHD-1 Enzyme Inhibition Assay; also: in the data most compounds retested in dose-response had high values
- Type: functional
- Design: scale not given: direction of the effect not stated beside the values
- assay.conditions: 30 µM
attribute.measured: Percent Effect (%)
Number only, in %; omit the unit.

Request the reported Percent Effect associated with Cc1nnc2n1CCN(Cc1ncc(-c3ccc(Cl)cc3)o1)C2
-5.79

Request the reported Percent Effect associated with CCNc1cc2c(nn1)CCN(C(=O)c1ccnc(N(C)C)c1)C2
-5.51

Request the reported Percent Effect associated with O=C(CCO)N1CCOC2(CCCN(C(=O)c3ccco3)C2)C1 (stereo not drawn)
0.942

Request the reported Percent Effect associated with CC(Cn1cccn1)NCc1nc(-c2cccc(Cl)c2)no1 (stereo not drawn)
2.72

Request the reported Percent Effect associated with COCC1CN(C(=O)c2cccn2C)Cc2nccn2C1 (stereo not drawn)
-4.6

Request the reported Percent Effect associated with O=C(C1CCOC1)N1C[C@H]2CN(Cc3nccs3)C[C@H]2C1 (stereo partly drawn)
-2.08

Request the reported Percent Effect associated with Cn1cccc1CCC(=O)N1CCC2(CC1)c1ccccc1CC2O (stereo not drawn)
5.42

Request the reported Percent Effect associated with Cc1cc(CN2CC[C@H]3C(=O)N(c4ccccc4)CCO[C@H]3C2)no1
-1.25

###

- Tested on: Trypanosoma cruzi
- assay.overview: Trypanosoma cruzi phosphomannomutase and mannose-1-phosphate guanylyltransferase assay
- Format: functional
- Parameters: scale not given: direction of the effect not stated beside the values
- assay.conditions: 10 µM
attribute.measured: Percent Effect (%)
Number only, in %; omit the unit.

Request the reported Percent Effect associated with Cc1nn(C)c(C)c1C1CCCN1Cc1nc(-c2ccco2)oc1C (centres undefined)
-1.76

Request the reported Percent Effect associated with COCC(=O)N1CC[C@@H]2O[C@@H](COCc3csc(C)n3)CC[C@@H]21
-2.25

Request the reported Percent Effect associated with CN(Cc1ccccc1O)C(=O)NC1CCCN(c2ncccn2)C1 (centres undefined)
-7.89

Request the reported Percent Effect associated with Cc1nc(CN2CCOC(Cn3cncn3)C2)nc2ccccc12 (centres undefined)
3.04

Request the reported Percent Effect associated with CCCc1n[nH]c(C2CN(C(=O)c3cc(F)ccc3OC)CCO2)n1 (centres undefined)
2.33

Request the reported Percent Effect associated with Cc1cnc(CN2CCOC(Cn3nc(C)nc3C)C2)cn1 (centres undefined)
4.82

Request the reported Percent Effect associated with CCc1noc(C(C)N2CCN(Cc3noc(C)n3)CC2)n1 (centres undefined)
1.32

Request the reported Percent Effect associated with COCCc1noc(CN(C)C2CCCN(c3ccc(C)nn3)C2)n1 (centres undefined)
3.41

Request the reported Percent Effect associated with COc1c(CNCCNC(=O)c2ccc(C)cc2)c(C)nn1C
6.96

###

- measured.target: Ubiquitin-activating enzyme e1, putative (Leishmania donovani (strain BPK282A1))
- Sequence (whole entry): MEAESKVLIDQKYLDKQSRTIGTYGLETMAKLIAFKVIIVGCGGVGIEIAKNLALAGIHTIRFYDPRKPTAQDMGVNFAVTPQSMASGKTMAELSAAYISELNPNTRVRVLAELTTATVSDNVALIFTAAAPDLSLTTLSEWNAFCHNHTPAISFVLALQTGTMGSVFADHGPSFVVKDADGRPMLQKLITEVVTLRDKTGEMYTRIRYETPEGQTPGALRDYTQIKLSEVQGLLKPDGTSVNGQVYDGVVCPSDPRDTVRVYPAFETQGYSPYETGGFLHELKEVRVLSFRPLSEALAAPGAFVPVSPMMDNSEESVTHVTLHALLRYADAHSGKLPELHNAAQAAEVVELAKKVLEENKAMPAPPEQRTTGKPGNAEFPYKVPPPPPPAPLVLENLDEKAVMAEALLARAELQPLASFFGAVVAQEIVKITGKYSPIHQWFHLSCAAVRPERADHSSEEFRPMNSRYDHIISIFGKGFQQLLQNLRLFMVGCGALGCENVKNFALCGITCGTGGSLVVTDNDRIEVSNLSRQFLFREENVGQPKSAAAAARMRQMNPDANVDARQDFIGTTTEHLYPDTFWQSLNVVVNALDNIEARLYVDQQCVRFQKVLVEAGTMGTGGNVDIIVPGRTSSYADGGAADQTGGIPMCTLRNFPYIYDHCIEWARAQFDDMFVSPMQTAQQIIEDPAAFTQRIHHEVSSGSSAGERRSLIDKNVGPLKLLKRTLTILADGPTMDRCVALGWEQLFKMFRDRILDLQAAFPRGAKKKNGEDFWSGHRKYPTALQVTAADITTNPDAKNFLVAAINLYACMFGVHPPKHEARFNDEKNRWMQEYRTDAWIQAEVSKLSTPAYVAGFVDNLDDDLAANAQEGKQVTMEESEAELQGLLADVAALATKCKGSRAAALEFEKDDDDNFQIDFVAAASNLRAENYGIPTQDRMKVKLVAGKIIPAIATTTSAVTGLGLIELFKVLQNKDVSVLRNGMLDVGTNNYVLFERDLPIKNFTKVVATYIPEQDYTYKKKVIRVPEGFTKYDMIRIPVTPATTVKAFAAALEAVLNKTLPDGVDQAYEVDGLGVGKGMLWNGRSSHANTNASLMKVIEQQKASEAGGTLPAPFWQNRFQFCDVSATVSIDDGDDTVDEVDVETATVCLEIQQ
- assay.overview: Leishmania donovani Ubiquitin Activating Enzyme (LdE1)
- Format: functional
- Design: scale not given: direction of the effect not stated beside the values
- assay.conditions: 30 µM
Results with a measured potency or affinity are listed apart.
attribute.measured: Percent Effect (%)
Number only, in %; omit the unit.

Request the reported Percent Effect associated with CCCc1cc(=O)[nH]c2nnc(SCC(=O)NCc3ccc(C)cc3)n12
13.7

Request the reported Percent Effect associated with O=C(C1CCCc2[nH]ncc21)N1CCCC1 (stereo unspecified)
-2.7

Request the reported Percent Effect associated with CC(C)c1nnc2n1CCN(C(=O)CN1Cc3ccccc3C1=O)C2
2.63

Request the reported Percent Effect associated with CC(C)C(=O)N1CCN(C(=O)c2cscn2)[C@H]2CS(=O)(=O)C[C@H]21
15.3

Request the reported Percent Effect associated with OCCOCCN1CCCC1c1nc2cc(F)ccc2[nH]1 (stereo unspecified)
21.9

Request the reported Percent Effect associated with CCOc1cccc2c1OCC(C(=O)NS(=O)(=O)c1ccc(C)s1)=C2
-8.11

Request the reported Percent Effect associated with O=C(CC1CCCCC1)N1CCN(C(=O)NCc2ccccn2)CC1
10.4

Request the reported Percent Effect associated with COCC1CC2(CCN(C(=O)c3occc3C)CC2)CO1 (stereo unspecified)
2.6

Request the reported Percent Effect associated with CC(NCc1ccc(F)cc1)c1ccc(OCC(=O)NC2CC2)cc1 (stereo unspecified)
6.33

Request the reported Percent Effect associated with CC(C)c1nc(N2CC(N3CCCCC3C)C2)c2cnn(C)c2n1 (stereo unspecified)
-2.74

Request the reported Percent Effect associated with COc1cccc(CC2CN(C3CCN(C(C)=O)CC3)CCO2)c1 (stereo unspecified)
-7.79

Request the reported Percent Effect associated with CC(C)c1nn(C)c(Cl)c1CNCC(O)c1cccc(F)c1 (stereo unspecified)
5.2

Request the reported Percent Effect associated with O=C(c1ccc[nH]1)N1C[C@H]2CN(Cc3cccc(F)c3)C(=O)[C@H]2C1
13.5

Request the reported Percent Effect associated with Cc1nc(CNC(=O)NCC(O)c2cccc(Cl)c2)cs1 (stereo unspecified)
2.7

Request the reported Percent Effect associated with O=C(COc1cccc2c1CCC2=O)NCCSc1ccccc1
5.26

Request the reported Percent Effect associated with N#Cc1ccccc1CN1C[C@@H]2CC[C@H](C1)N(Cc1cscn1)C2=O
5.41

###

- measured.target: Arginase-2, mitochondrial (Homo sapiens)
- assay.overview: in vitro enzyme assay to detect the production of urea directly proportional to the activity of Arginase II; also: in the data most compounds retested in dose-response had high values
- Format: functional
- Design: scale not given: direction of the effect not stated beside the values
- assay.conditions: 33.3 µM
attribute.measured: Percent Effect
# output: number + unit

Request the reported Percent Effect associated with CC1CN(C)c2ccccc2CN1C(=O)c1ccncc1 (stereo unspecified)
32.3%

Request the reported Percent Effect associated with Cc1nc(CCNC(=O)N2CCC(Cc3cnn(C)c3)C2)cs1 (stereo unspecified)
116%

Request the reported Percent Effect associated with COC(=O)c1ccc(N2CCN(CCN3CCOCC3)C(C)C2)cc1 (stereo unspecified)
-1.8%

Request the reported Percent Effect associated with O=C1CC(c2cccs2)c2cnn(C3CCCC3)c2N1 (stereo unspecified)
-4.69%

Request the reported Percent Effect associated with COc1cccc(CN2CCCCCC2c2cccc(C)c2)c1O (stereo unspecified)
-3.23%

Request the reported Percent Effect associated with CC(=O)Nc1nc(C(=O)NCc2ccc(N3CCCCCC3)nc2)cs1
-4.09%

Request the reported Percent Effect associated with Cc1nc(C)n(CC2CCCN2CCCOc2ccc(F)cc2)n1 (stereo unspecified)
0%

Request the reported Percent Effect associated with O=C1NCCN1C1CCN(Cc2nc(-c3ccoc3)no2)CC1
-2.85%

Request the reported Percent Effect associated with COc1cccc(CC2CN(C3CCN(C(C)=O)CC3)CCO2)c1 (stereo unspecified)
-2.76%

Request the reported Percent Effect associated with CSc1ccc(NS(=O)(=O)c2cnn(C)c2)cn1
-4.39%

Request the reported Percent Effect associated with O=C(c1ccc(Cl)o1)N1CCCC(c2cc(C(F)(F)F)[nH]n2)C1 (stereo unspecified)
-0.719%

Request the reported Percent Effect associated with c1ccc(CN2CCN(Cc3cscn3)CC2)cc1
3.58%

Request the reported Percent Effect associated with CNC(=O)NC(=O)CN1CCC(c2cccc(F)c2)C1 (stereo unspecified)
2.3%

Request the reported Percent Effect associated with CCc1nnc(CN(C)c2nc(C(C)C)nc3c2cnn3C)o1
2.21%

Request the reported Percent Effect associated with Cc1n[nH]c(C2CN(C(=O)c3cc(C4CC4)[nH]n3)CCO2)n1 (stereo unspecified)
0.632%

Request the reported Percent Effect associated with CC(C(=O)NCc1ccnc(N(C)C)c1)n1cncn1 (stereo unspecified)
-0.476%

Request the reported Percent Effect associated with Cc1cnc(CN2CCCC(c3cc(C(N)=O)[nH]n3)C2)o1 (stereo unspecified)
-16.8%

Request the reported Percent Effect associated with CCOC1CCN(C(=O)c2c(Cl)c3ccccc3n2C)CC1
3.12%

Request the reported Percent Effect associated with CCN(CC)C(=O)CN(C)C1CCc2ccccc21 (stereo unspecified)
3.83%

Request the reported Percent Effect associated with CC(C)CNC(=O)CN1C=Nc2ccccc2S1(=O)=O
2.16%

Request the reported Percent Effect associated with Cc1cnn(C2CCCN(C(=O)C3=NN(C)C(=O)CC3)C2)c1 (stereo unspecified)
3.21%

Request the reported Percent Effect associated with COCCNC(=O)C(C)n1cc(Br)cn1 (stereo unspecified)
-2.76%

Request the reported Percent Effect associated with Cc1ccccc1CS(=O)(=O)CC(=O)NC1CCCCNC1=O (stereo unspecified)
-4.98%

Request the reported Percent Effect associated with Cc1cccc(C(=O)NCc2ccc(S(N)(=O)=O)cc2)n1
2.85%

Request the reported Percent Effect associated with CC(=O)N1CCCN(C(=O)NCCc2cc(Cl)cc(Cl)c2)CC1
7.1%

Request the reported Percent Effect associated with Cc1ccc(C(=O)N2CCCC2c2nnc3n2CCCCC3)o1 (stereo unspecified)
-11.9%

Request the reported Percent Effect associated with COc1ccc(C(=O)N(C)Cc2nnc3ccccn23)c(OC)c1
-1.47%

Request the reported Percent Effect associated with Cc1ccc(F)c(C(=O)N2CCN(S(C)(=O)=O)[C@@H](C)C2)c1
-1.82%

Request the reported Percent Effect associated with c1ccc2sc(CN3CCCC3c3noc(C4CC4)n3)nc2c1 (stereo unspecified)
0.185%

Request the reported Percent Effect associated with COCCN1C(=O)C[C@H]2[C@H]1CCN2Cc1ccc(OC)cc1
7.69%

Request the reported Percent Effect associated with FC(F)(F)C1CCCn2c(CNCc3ccsc3)nnc21 (stereo unspecified)
1.56%

Request the reported Percent Effect associated with COc1ccc(-c2nnc(SC(C)C(=O)NC3CC3)[nH]2)c(OC)c1 (stereo unspecified)
-2.37%

Request the reported Percent Effect associated with CC(NCc1ccc(F)cc1)c1ccc(OCC(=O)NC2CC2)cc1 (stereo unspecified)
-7.1%

Request the reported Percent Effect associated with COc1ccc(CN2CCn3c(CNS(C)(=O)=O)nnc3C2)cc1
-3.5%

Request the reported Percent Effect associated with O=C(c1cccc(=O)[nH]1)N(Cc1ccsc1)CC1CCCO1 (stereo unspecified)
2.86%

Request the reported Percent Effect associated with CC(=O)N1CCC(C(=O)NCCN2CCC(C)CC2)CC1
4.86%

Request the reported Percent Effect associated with CCn1ccnc1CN1CCN(Cc2ccc(C#N)cc2)CC1
-4.6%

Request the reported Percent Effect associated with CC(C)N(CC(N)=O)Cc1csc(COc2ccc(F)cc2)n1
-4.18%

Request the reported Percent Effect associated with Cn1ccnc1CN1CCC2(CC1)CC(Oc1cccnc1)C2
-23.8%

Request the reported Percent Effect associated with COC(=O)c1cccc(C(=O)N2CCN(c3cccc(C)c3C)CC2)n1
0.645%

Request the reported Percent Effect associated with COc1nn(C)c2c1CCCN(C(=O)c1cc[nH]n1)C2
-0.319%
